- Tgt: T1, human prothrombin (human, UniProt P00734 44-622)
- T1 construct: Zymogen substrate of prothrombinase; also called factor II
- Assay Explanation: calculated from IC50 of prothrombinase inhibition, IC50=Ki(1+S0/Km), Km 0.4 µM, prothrombin 350 nM
Quantity Name: Ki (µM)

>>> recorded_value("DYDYQNRLAA (Synthetic 10-residue peptide) [HC4 peptide (amino acid residues 695-704 of human factor Va heavy chain)]")
5.3
>>> recorded_value("EESDADYDYQ (Synthetic 10-residue peptide) [HC3 peptide (amino acid region 690-699 of human factor Va heavy chain)]")
6.3

Hello, the source for this data is patent US20070299013A1, in case you need it.
